system: 958667-338-R-J2-PDC tumor spheroids viability; test: Anticancer human tumor 958667-338-R-J2-PDC patient-derived colon adenocarcinoma cell line growth inhibition [PI3K]; conditions: second compound 1 µM; first compound 1 µM; active compounds read low; spheroids with HUVEC and MSC;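 further: spheroids exposed to compounds for seven days before readout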
Criterion: viability, T/C strictly less than 60%. Met: label 1. Not met: label 0.

As a guide, the following entries are already answered.
{"Compound": "C=CC(=O)N1CCN(c2nc(=O)n(-c3c(C)ccnc3C(C)C)c3nc(-c4c(O)cccc4F)c(F)cc23)C(C)C1 (stereo unspecified) + CC(Nc1ncnc2nc[nH]c12)c1cc2cccc(Cl)c2c(=O)n1-c1ccccc1", "Answer Label": "label 0"}
{"Compound": "CC(C)NCC(C(=O)N1CCN(c2ncnc3c2C(C)CC3O)CC1)c1ccc(Cl)cc1 (stereo unspecified) + COc1c(OCCCN2CCOCC2)ccc2c3n(c(=NC(=O)c4cnc(N)nc4)nc12)CCN3", "Answer Label": "label 1"}
{"Compound": "CC1(C)CCC(CN2CCN(c3ccc(C(=O)NS(=O)(=O)c4ccc(NCC5CCOCC5)c([N+](=O)[O-])c4)c(Oc4cnc5[nH]ccc5c4)c3)CC2)=C(c2ccc(Cl)cc2)C1 + CC(Nc1ccc2c(c1)OCCn1cc(N3C(=O)OCC3C(F)F)nc1-2)C(N)=O", "Answer Label": "label 0"}
{"Compound": "CCCS(=O)(=O)Nc1ccc(F)c(C(=O)c2c[nH]c3ncc(-c4ccc(Cl)cc4)cc23)c1F + Cc1nc(NC(=O)N2CCCC2C(N)=O)sc1-c1ccnc(C(C)(C)C(F)(F)F)c1", "Answer Label": "label 0"}
{"Compound": "Cn1nccc1Nc1nccc(-c2ccn(C(CO)c3ccc(Cl)c(F)c3)c(=O)c2)n1 (stereo unspecified) + CC(Nc1ncnc2nc[nH]c12)c1cc2cccc(Cl)c2c(=O)n1-c1ccccc1", "Answer Label": "label 0"}
{"Compound": "Cn1ncc(Cl)c1-c1cc(C(=O)NC(CN)Cc2cccc(F)c2)sc1Cl (stereo unspecified) + Cc1nc(NC(=O)N2CCCC2C(N)=O)sc1-c1ccnc(C(C)(C)C(F)(F)F)c1", "Answer Label": "label 0"}
{"Compound": "CC1(C)CCC(Nc2ncc(C(F)(F)F)c(-c3c[nH]c4c(P(C)(C)=O)c(C#N)ccc34)n2)CN1 (stereo unspecified) + CC(Nc1ncnc2nc[nH]c12)c1cc2cccc(Cl)c2c(=O)n1-c1ccccc1", "Answer Label": "label 0"}
{"Compound": "CC(Cn1ccc(-c2ccc(C#N)c(Cl)c2)n1)NC(=O)c1cc(C(C)O)[nH]n1 (stereo unspecified) + Cc1nc(NC(=O)N2CCCC2C(N)=O)sc1-c1ccnc(C(C)(C)C(F)(F)F)c1", "Answer Label": "label 0"}

Prompt: Criterion: viability, T/C strictly below 60%. Is it met by CNC(=O)c1ccc(N2C(=S)N(c3ccc(C#N)c(C(F)(F)F)c3)C(=O)C2(C)C)cc1F + CC(Nc1ccc2c(c1)OCCn1cc(N3C(=O)OCC3C(F)F)nc1-2)C(N)=O ?
Response: label 0

Prompt: Criterion: viability, T/C strictly below 60%. Is it met by CC(Cn1ccc(-c2ccc(C#N)c(Cl)c2)n1)NC(=O)c1cc(C(C)O)[nH]n1 (stereo unspecified) + COc1c(OCCCN2CCOCC2)ccc2c3n(c(=NC(=O)c4cnc(N)nc4)nc12)CCN3 ?
Response: label 1

Prompt: Criterion: viability, T/C strictly below 60%. Is it met by Cn1ncc(Cl)c1-c1cc(C(=O)NC(CN)Cc2cccc(F)c2)sc1Cl (stereo unspecified) + CC(Nc1ccc2c(c1)OCCn1cc(N3C(=O)OCC3C(F)F)nc1-2)C(N)=O ?
Response: label 1
